Hey, just so you know, these numbers are from PubChem BioAssay AID686978.

Experiment: qHTS for Inhibitors of human tyrosyl-DNA phosphodiesterase 1 (TDP1): qHTS in cells in absence of CPT; further: nearly all actives have a fitted effect of over 55% in size
Conditions: DT40 Tdp1-/- hTDP1 cells, no CPT, ATP luminescence, 48 h
Screen size: about 420,000 compounds; about 64,000 (15%) were called active. Roughly 27% stayed inconclusive and do not appear here. The call rests on the fitted dose curve; in most records, active means well fitted inhibition curve with a large enough effect; inconclusive means small, poorly fitted or top-dose-only effect; inactive means flat fitted curve, though single readings scatter. These entries were drawn from the full list.
# output must be one of Yes for active, No for inactive

// return assay outcome for O=C(OCC(=O)N1CCOCC1)c1ccc(N2CCOCC2)c([N+](=O)[O-])c1
No

// return assay outcome for COC(=O)C(NS(=O)(=O)c1ccc(F)cc1)c1ccccc1 (stereo not drawn)
No

// return assay outcome for O=C(Cc1ccc(S(=O)(=O)N2CCOCC2)s1)N1CCN(c2ccc(C(F)(F)F)cc2[N+](=O)[O-])CC1
Yes

// return assay outcome for Cc1cnc(C(=O)OCC(=O)Nc2ccc(Cl)cc2Cl)cn1
No

// return assay outcome for COc1cc(OC)cc(C(=O)NNC(=O)Cc2cccs2)c1
No

// return assay outcome for Cc1cc(=O)[nH]c(SCc2cc(Cl)ccc2OC(F)F)n1
No

// return assay outcome for CC1(C)c2[nH]c3ccccc3c2C[C@H]2C(=O)N(N)CC(=O)N21
No

// return assay outcome for O=C1CC(c2ccccc2)CC(O)=C1C=NCCN1CCOCC1 (stereo not drawn)
No

// return assay outcome for Fc1ccc(CNCc2ccc(Br)cc2)cc1
No

// return assay outcome for O=C1N[C@H](Cc2c[nH]c3ccccc23)COC(=O)[C@H](Cc2ccc(F)cc2)C/C=C\C[C@H]1CC(=O)N(CCO)Cc1ccccc1
Yes

// return assay outcome for NS(=O)(=O)c1ccc(CCNC(=O)c2ccc(Cl)cc2[N+](=O)[O-])cc1
No

// return assay outcome for Cc1cccc(-n2c(SCC(=O)Nc3cccc(S(=O)(=O)NC4=NCCCCC4)c3)nc3ccccc3c2=O)c1C
Yes

// return assay outcome for O=C(Cc1ccc(S(=O)(=O)N2CCOCC2)s1)NCCOc1ccccc1F
No

// return assay outcome for Cc1ccc(OCC(=O)Nc2ccc(S(=O)(=O)Nc3ccccn3)cc2)cc1
No

// return assay outcome for N/C(=N\OC(=O)CC1CCCCC1)c1ccccc1
No

// return assay outcome for CCCCc1nc(SCC(=O)Nc2nnc(C(C)C)s2)n[nH]1
No

// return assay outcome for O=C(COc1ccc(S(=O)(=O)N2CCOCC2)cc1Cl)N1CCOCC1
No

// return assay outcome for Cc1ccsc1/C=N/NC(=O)Cc1cc(=O)[nH][nH]1
No

// return assay outcome for O=C1CCC/C=C/C[C@@H](CC(=O)N(CCO)Cc2ccccc2)C(=O)NC[C@H](c2ccccc2)O1
No

// return assay outcome for O=C(Cc1ccc(S(=O)(=O)N2CCOCC2)s1)Nc1ccc(Br)c(C(F)(F)F)c1
Yes

// return assay outcome for CC(=O)NS(=O)(=O)c1ccc(N/C(N)=N/c2nc(C)cc(C)n2)cc1
No

// return assay outcome for COc1ccc(-c2cc(C(F)(F)F)nc(S(C)(=O)=O)n2)cc1OC
Yes

// return assay outcome for C/C(=N\NC(=O)c1ccoc1C)c1ccccc1O
Yes

// return assay outcome for CCOC(=O)c1c(NC(=O)COc2cc(C)ccc2C(C)C)sc(C)c1C
No

// return assay outcome for CC1=C2C(=O)OC(c3ccoc3)C2(C)CCC1 (stereo not drawn)
No

// return assay outcome for Cc1ccccc1NC(=O)N1CCCC1C(=O)NCc1ccccc1 (stereo not drawn)
No

// return assay outcome for O=C(CSc1n[nH]c(=O)n1-c1ccccc1)Nc1ccccc1C(F)(F)F
No

// return assay outcome for CN(C)CC/C=C1\c2ccccc2CSc2ccccc21
No

// return assay outcome for O=C(Cc1ccccc1)NCc1ccc(F)cc1
No

// return assay outcome for O=S(=O)(Nc1cc(S(=O)(=O)N2CCOCC2)ccc1N1CCCC1)c1cccs1
No

// return assay outcome for CC(=O)NC(Cc1ccc(F)c(F)c1)C(=O)NC1CCN(C(=O)c2ccc(C)cc2)CC1 (stereo not drawn)
No

// return assay outcome for O=C(C[C@@H]1C/C=C\CCC(=O)OC[C@@H]2CCCN2C1=O)NCCO
No

// return assay outcome for CCCCn1c(N)c(N(CC)C(=O)c2ccc(N(C)S(=O)(=O)c3ccc(C)cc3)cc2)c(=O)[nH]c1=O
No

// return assay outcome for O=C(NCc1nnnn1-c1ccc(Cl)cc1)c1ccc2c(c1)OCO2
No

// return assay outcome for FC(F)(F)C1CCCN(c2nsc3ccccc23)C1 (stereo not drawn)
Yes

// return assay outcome for Cc1cc(C)n2nc(SCC(N)=O)nc2n1
No

// return assay outcome for O=C(CCc1ccc(S(=O)(=O)N2CCOCC2)cc1)OCC(=O)c1ccc(Br)cc1
No

// return assay outcome for O=C(NCC(=O)N1CCCC(C(F)(F)F)C1)c1ccccc1F (stereo not drawn)
No

// return assay outcome for O=C1CN(C(=O)Nc2ccccc2C(F)(F)F)C(c2ccccc2)c2c(sc3c2CCCC3)N1 (stereo not drawn)
Yes

// return assay outcome for O=C(COC(=O)C1CCN(S(=O)(=O)c2ccc3c(c2)OCCO3)CC1)Nc1ccccc1OC(F)F
No

// return assay outcome for C=CC(C1=CC(=O)C=CC1=O)c1ccc(O)cc1 (stereo not drawn)
Yes

// return assay outcome for CN(Cc1ccccc1)C(=O)C(=O)c1cn(CC(=O)N2CCCC2)c2ccccc12
No

// return assay outcome for c1ccc(CNCc2ccc(CNCc3ccccc3)cc2)cc1
Yes
